measured target: Nuclear receptor subfamily 1 group I member 3 (Homo sapiens) (UniProt Q14994)
Sequence (Q14994 whole entry, looked up): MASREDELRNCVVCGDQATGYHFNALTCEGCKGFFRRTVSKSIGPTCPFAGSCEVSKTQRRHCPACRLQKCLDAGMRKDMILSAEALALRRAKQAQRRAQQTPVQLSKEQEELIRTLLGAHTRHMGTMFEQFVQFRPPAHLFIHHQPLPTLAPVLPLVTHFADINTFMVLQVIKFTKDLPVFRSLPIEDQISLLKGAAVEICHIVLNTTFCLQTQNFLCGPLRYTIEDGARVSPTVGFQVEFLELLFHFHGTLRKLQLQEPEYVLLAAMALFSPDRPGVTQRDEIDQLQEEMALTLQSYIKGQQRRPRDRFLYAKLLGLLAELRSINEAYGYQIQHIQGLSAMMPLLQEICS
experiment: qHTS assay to identify small molecule agonists of the constitutive androstane receptor (CAR) signaling pathway (AID 1224839); also: nearly all actives have a fitted effect of over 15% in size;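 as to activation: HepG2 cells stably carrying human CAR and a CYP2B6 luciferase reporter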
condition description: HepG2 hCAR CYP2B6-luciferase, agonist mode, 24 h; series mostly up to 92.4 µM
Inconclusive results are not listed. Activity calls are given as the source filed them. Calls follow the shape of the dose curve; as a rule, active = well fitted activation curve with a large enough effect in the repeat runs; inconclusive = weak or mixed curves; inactive = no such curve, though single readings can be large or run the other way.
Select the matching outcome among 1 (active), 0 (inactive)

The following compounds have reported results that may help.
CCCCNCCCC    0
CCc1nnc(NS(=O)(=O)c2ccc(N)cc2)s1    0

Continue with the next compound.
-- ask Dear colleague, could you share the recorded outcome for CCCCCCOc1ccc(N)cc1 when you have a moment?
-- reply 1

Reference source for all entries: PubChem BioAssay (Tox21)
